experiment_notes: nonselective calcium activators in parental CHO-K1 cells, primary screen, counter-screen for M1 PAM project, cell-based, Fluo-8 calcium fluorescence, full deck, 1536-well (AID 602247);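 also: peak over basal fluorescence ratio in a 140 s read after ATP addition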
run_conditions: parental CHO-K1, ATP EC20, Fluo-8 calcium fluorescence; at 3 µM; stronger effect = higher value; 0% at ATP EC20, 100% at ATP max
Screen size: about 360,000 compounds; about 80 (0.02%) were called active. Only a selection was taken, and actives are over-represented in it overall.
The compounds listed here are annotated with their activation.
Give the value in % but do not write % after it.

Lookup: Query activation for `CC1(C)O[C@@H]2[C@H](O1)[C@@H](CO)O[C@H]2n1c(N2CCCCC2)nc2c(N)ncnc21`
Found: 11.6

Lookup: Give the value of activation reported for the following: `Cc1ccc(C(=O)O)cc1N1C(=O)CCCC1=O`
Found: 17.6

Lookup: Identify measured activation corresponding to Cc1cccc(CC2(O)C(=O)Nc3ccccc32)n1 (stereo unspecified)
Found: 12.3

Lookup: Report activation for Cc1ccc(N2C(=O)CC(N3CCSCC3)C2=O)c(C)c1 (stereo unspecified)
Found: 0.16

Lookup: Given `CSc1ncccc1C(=O)OCc1ccc(Br)cc1` , respond with its activation.
Found: 17

Lookup: For the compound `Cc1cccc([C@H]2[C@@H]3C=CC[C@@H](C)[C@@H]3C(=O)N2Cc2ccccc2)c1` , give its measured activation value.
Found: -0.48

Lookup: Indicate its recorded activation; the compound in question is `O=c1[nH]c(CCl)nc2cc(-c3ccc(Cl)cc3)sc12`
Found: 13

Lookup: Tell me activation reported for Cc1ccc2nc(NC(=O)C3CSC4(C)CCC(=O)N34)sc2c1 (stereo unspecified)
Found: -12.5

Lookup: Annotate the compound `COc1ccc(C(=O)N2CCC(C(=O)Nc3ccc(C)cc3)CC2)cc1` with its measured activation.
Found: 28.6

Lookup: Please report activation for the following compound: COc1ccc(CCN2CC(C(=O)OCC(=O)NCc3ccccc3Cl)CC2=O)cc1OC (stereo unspecified)
Found: -3.82

Lookup: Please look at this compound and report its activation: CCC1CCCCN1C(=S)Nc1ccc(SC(F)F)cc1 (stereo unspecified)
Found: 3.06

###

// values below are reported activation
experiment_notes: nonselective calcium activators in parental CHO-K1 cells, primary screen, counter-screen for M1 PAM project, cell-based, Fluo-8 calcium fluorescence, full deck, 1536-well (AID 602247);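 also: peak over basal fluorescence ratio in a 140 s read after ATP addition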
run_conditions: parental CHO-K1, ATP EC20, Fluo-8 calcium fluorescence; at 3 µM; stronger effect = higher value; 0% at ATP EC20, 100% at ATP max
Among all 360,000 compounds or so, about 80 (0.02%) were called active. Only a selection was taken, and actives are over-represented in it overall.
Supply the numeric figure in %, leaving out any unit text.

>>> result_value("O=c1cc(CN2CCN(S(=O)(=O)/C=C/c3ccccc3)CC2)c2ccc(O)cc2o1")
-3.7
>>> result_value("NC(=O)c1ncn([C@@H]2O[C@H](CN=C3NS(=O)(=O)c4ccccc43)[C@@H](O)[C@H]2O)n1")
12.9

Lookup: Output measured activation for this item: Cc1c(Br)c([N+](=O)[O-])nn1C(C)C(=O)Nc1nccs1 (centres undefined)
Found: 3.45

Lookup: Quote activation reported for `COc1ccc(NC(=O)c2sc(N3CCOCC3)nc2-c2ccccc2)c(OC)c1` please.
Found: 44.6

Lookup: Note down activation recorded for `CC(C)n1ncc2c(C(=O)NCc3ccccc3CN(C)C)cc(C3CC3)nc21`
Found: -12.7

Lookup: Identify activation associated with the molecule O=C(NCc1ccccc1)C(c1ccco1)N(C(=O)c1csnn1)c1ccccc1F (centres undefined)
Found: -7

Lookup: Tell me activation reported for `CC(C)NC(=O)NC(=O)CSc1nnc(-c2ccccc2F)n1N`
Found: 30

Lookup: // Input: `CCCCN(C(=O)c1cccc(N2C(=O)c3ccccc3C2=O)c1)c1c(N)n(CCCC)c(=O)[nH]c1=O` . Output its activation only.
Found: 11.7

Lookup: Answer with reported activation of O=C(NC1CCCC1)C(c1ccc(N2CCOCC2)cc1)N(C(=O)c1ccco1)c1ccccc1F (centres undefined)
Found: 4.16

Data origin, for the record: PubChem BioAssay AID602247
